Measured OD ratio 18-23/BSA, listed per entry.
Biological target: T1, BSA-conjugated Aβ heptapeptide VFFAEDC (C-terminal Cys coupled to NSMP-activated BSA);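 also: ELISA of antibody at 10 or 2 µg/ml binding plate-coated BSA–peptide conjugates, detected with HRP anti-human Ig and TMB colour, mock-treated BSA without peptide as negative control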
T1 construct: also called Peptide 18-23
T1 peptide: VFFAEDC
Test: ELISA

{"columns": ["BINDER", "OD ratio 18-23/BSA"],
 "data": [
  ["MS-Roche #7.2.H4 Fab (Fab, V domains shown) VH: QVQLVESGGGLVQPGGSLRLSCAASGFTFSSYAMSWVRQAPGKGLEWVSAINSKGSRIYYADSVKGRFTISRDNSKNTLYLQMNSLRAEDTAVYYCARGKGNTHKPYGYVRYFDVWGQGTLVTVSS VL: DIVLTQSPATLSLSPGERATLSCRASQSVSSSYLAWYQQKPGQAPRLLIYGASSRATGVPARFSGSGSGTDFTLTISSLEPEDFATYYCQQIYSFPHTFGQGTKVEIKR", 13],
  ["MS-Roche #7.2.H2 Fab (Fab, V domains shown) VH: QVQLVESGGGLVQPGGSLRLSCAASGFTFSSYAMSWVRQAPGKGLEWVSAINGTGMKKYYADSVKGRFTISRDNSKNTLYLQMNSLRAEDTAVYYCARGKGNTHKPYGYVRYFDVWGQGTLVTVSS VL: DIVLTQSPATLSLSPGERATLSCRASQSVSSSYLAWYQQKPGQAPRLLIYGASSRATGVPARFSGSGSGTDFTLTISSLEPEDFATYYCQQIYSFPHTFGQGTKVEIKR", 10],
  ["MS-Roche #7.11.H2 Fab (Fab, V domains shown) VH: QVQLVESGGGLVQPGGSLRLSCAASGFTFSSYAMSWVRQAPGKGLEWVSAINANGYKKYYADSVKGRFTISRDNSKNTLYLQMNSLRAEDTAVYYCARGKGNTHKPYGYVRYFDVWGQGTLVTVSS VL: DIVLTQSPATLSLSPGERATLSCRASQSVSSSYLAWYQQKPGQAPRLLIYGASSRATGVPARFSGSGSGTDFTLTISSLEPEDFATYYCQQVYSPPHTFGQGTKVEIKR", 12]
]}
